Task for the reader: assign each of the following molecules its reported LD50.
# Test system: house fly (Musca domestica)
# protocol-details: Local application to house fly, LD50 by Probit method (Test Example 4)
# Format: in vivo
# assay-setup: topical, 24 h
Note: unit mg/kg is implicit; provide only the numeric part.

input: Field: LD50 (house fly (Musca domestica)). Entry: `CCCCN(CCC(=O)OCC)SN(C)C(=O)Oc1cccc2c1OC(C)(C)C2`
output: 13.8

input: What about `CCOC(=O)CN(SN(C)C(=O)Oc1cccc2c1OC(C)(C)C2)C(=O)OC` ?
output: 15.7

input: What about `Cc1ccc(N(CC#N)SN(C)C(=O)Oc2cccc3c2OC(C)(C)C3)cc1` ?
output: 59.3

input: What about `CCOC(=O)CN(SN(C)C(=O)Oc1cccc2c1OC(C)(C)C2)c1ccc(OC)cc1` ?
output: 45.2

input: What about CCOC(=O)CN(SN(C)C(=O)Oc1cccc2c1OC(C)(C)C2)C(C)CC (centres unmarked) ?
output: 44.4

input: What about `CCOC(=O)CN(Cc1ccccc1)SN(C)C(=O)Oc1cccc2c1OC(C)(C)C2` ?
output: 22.2

input: What about CCOC(=O)CCN(SN(C)C(=O)Oc1cccc2c1OC(C)(C)C2)C(C)CC (centres unmarked) ?
output: 22.5

input: What about `CCOC(=O)CN(SN(C)C(=O)Oc1cccc2c1OC(C)(C)C2)C(=O)c1ccccc1` ?
output: 33.2

input: What about `CCOC(=O)CN(SN(C)C(=O)Oc1cccc2c1OC(C)(C)C2)S(=O)(=O)c1ccc(C)cc1` ?
output: 58.6

input: What about `CCOC(=O)CCCN(CC(=O)OCC)SN(C)C(=O)Oc1cccc2c1OC(C)(C)C2` ?
output: 46

input: What about `CCCCN(CC#N)SN(C)C(=O)Oc1cccc2c1OC(C)(C)C2` ?
output: 9.1

input: What about `CCOC(=O)CCN(CCC(=O)OCC)SN(C)C(=O)Oc1cccc2c1OC(C)(C)C2` ?
output: 38.3

input: What about `CCOC(=O)CN(SN(C)C(=O)Oc1cccc2c1OC(C)(C)C2)C(=O)c1ccc(Cl)cc1` ?
output: 57.8

input: What about `CN(SN(CC#N)CC#N)C(=O)Oc1cccc2c1OC(C)(C)C2` ?
output: 21.3

input: What about `CCOC(=O)CN(SN(C)C(=O)Oc1cccc2c1OC(C)(C)C2)C(=O)Oc1ccccc1` ?
output: 34.7

input: What about `CCCCCCN(CCC(=O)OCC)SN(C)C(=O)Oc1cccc2c1OC(C)(C)C2` ?
output: 33.1

input: What about `CCOC(=O)CN(CCC#N)SN(C)C(=O)Oc1cccc2c1OC(C)(C)C2` ?
output: 24.6
